Target: benzodiazepine receptors
Assay: Displacement of tritiated diazepam, benzodiazepine receptor binding (synaptosome fraction of cerebral cortex)
Details: displacement of 2 nM tritiated diazepam, rat cortex synaptosomes, pH 7.4, 0°C, 20 min; read-out: Affinity to BZP Receptors, Ki
Each entry falls in a class defined on Ki; the bands are A = under 10 nM, B = from 10 nM up to 20 nM, C = 20 nM and over

[[record]]
molecule = "COc1ccc(N2N=C3c4cc(C)sc4CCC3CC2=O)cc1 (stereo not shown) [Example 14]"
qualitative_label = "A"

[[record]]
molecule = "COc1ccc(N2N=C3c4ccsc4CCC3CC2=O)cc1 (stereo not shown) [Example 9]"
qualitative_label = "B"


Sort into band: Cc1cc2c(s1)CCC1CC(=O)N(c3ccccc3)N=C21 (stereo not shown) [Example 5]
B

# classify by Ki band: Cc1ccc(N2N=C3c4cc(Br)sc4CCC3CC2=O)cc1 (stereo not shown) [Example 10]
A
